Reported IC50 is given for each of the following compounds.
System: BHK-21 cells
assay.notes: Anti-fibrosis activity test: inhibition of BHK-21 cell proliferation (CCK-8)
Assay type: cell-based
study.conditions: Mesocricetus auratus, BHK-21, 48 h, CCK-8, 48 hours after administration

compound	system.name	IC50
O=C1c2c(nc3cc(F)ccc3c2OCc2cccc(F)c2)-c2cccn21 [Compound 491b]	BHK-21 cells	0.05 to 5 mM
O=C1c2c(n(CCF)c3ccccc3c2=O)-c2cccn21 [Compound 653a]	BHK-21 cells	0.05 to 5 mM
N#Cc1cccc2[nH]c3c(c(=O)c12)C(=O)n1cccc1-3 [Compound 476a]	BHK-21 cells	< 0.05 mM
O=C1c2c(n(Cc3ccc(C(F)(F)F)cc3)c3ccccc3c2=O)-c2cccn21 [Compound 591a]	BHK-21 cells	0.05 to 5 mM
O=C1c2c(n(C(=O)c3ccco3)c3ccccc3c2=O)-c2cccn21 [Compound 95a]	BHK-21 cells	0.05 to 5 mM

* * *

System: BHK-21 cells
assay.notes: Anti-fibrosis activity test: inhibition of BHK-21 cell proliferation (CCK-8)
Type: cell-based
study.conditions: Mesocricetus auratus, BHK-21, 48 h, CCK-8, 48 hours after administration
Reported IC50 is given for each of the following compounds.
parameter.measured: IC50

compound	value.reported
O=C1c2c(n(Cc3ccc(Cl)cc3)c3cc(C(F)(F)F)ccc3c2=O)-c2cccn21 [Compound 544a]	< 0.05 mM
O=C1c2c([nH]c3ccc(Br)cc3c2=O)-c2cccn21 [Compound 246a]	5 to 20 mM
Cc1ccc(=O)n(-c2ccccc2)c1 [pirfenidone, reference compound]	20 to 100 mM
N#Cc1cc2c(OCc3ccc(C(F)(F)F)cc3)c3c(nc2cc1N1CCNCC1)-c1cccn1C3=O [Compound 642b]	0.05 to 5 mM

* * *

System: BHK-21 cells
assay.notes: Anti-fibrosis activity test: inhibition of BHK-21 cell proliferation (CCK-8)
Type: cell-based
study.conditions: Mesocricetus auratus, BHK-21, 48 h, CCK-8, 48 hours after administration
Reported IC50 is given for each of the following compounds.
parameter.measured: IC50

compound	value.reported
O=C1c2c(nc3cccc(Cl)c3c2OCc2ccccc2Cl)-c2cccn21 [Compound 645b]	0.05 to 5 mM
N#Cc1cccc2c(OCc3cccc(F)c3)c3c(nc12)-c1cccn1C3=O [Compound 454b]	0.05 to 5 mM
N#Cc1ccc(Cn2c3c(c(=O)c4cc(C#N)c(N5CCNCC5)cc42)C(=O)n2cccc2-3)cc1 [Compound 641a]	0.05 to 5 mM
O=C1c2c(nc3cc(Cl)ccc3c2OCc2ccc(Cl)cc2)-c2cccn21 [Compound 508b]	0.05 to 5 mM
CC(C)=CCOc1c2c(nc3ccc(F)cc13)-c1cccn1C2=O [Compound 112b]	0.05 to 5 mM
O=C1c2c(nc3ccc(F)cc3c2OC2CC2)-c2cccn21 [Compound 144b]	0.05 to 5 mM
O=C1c2c(n(Cc3ccc(Br)cc3)c3ccccc3c2=O)-c2cccn21 [Compound 594a]	< 0.05 mM
O=C1c2c(n(Cc3cccc(I)c3)c3ccccc3c2=O)-c2cccn21 [Compound 608a]	< 0.05 mM
O=C(Oc1c2c(nc3ccc(F)cc13)-c1cccn1C2=O)c1ccco1 [Compound 150b]	0.05 to 5 mM
O=C1c2c(nc3ccccc3c2Oc2ccc(F)cc2)-c2cccn21 [Compound 18b]	0.05 to 5 mM
N#Cc1cccc2c(=O)c3c(n(Cc4ccccc4F)c12)-c1cccn1C3=O [Compound 456a]	0.05 to 5 mM
N#Cc1cc2c(=O)c3c(n(Cc4ccc(-c5ccccc5)cc4)c2cc1N1CCNCC1)-c1cccn1C3=O [Compound 643a]	< 0.05 mM
N#Cc1cccc2nc3c(c(OCc4cccc(F)c4)c12)C(=O)n1cccc1-3 [Compound 463b]	0.05 to 5 mM
O=C1c2c(n(Cc3ccc(F)c(Cl)c3)c3ccccc3c2=O)-c2cccn21 [Compound 603a]	< 0.05 mM
O=C1c2c([nH]c3ccc(C(F)(F)F)cc3c2=O)-c2cccn21 [Compound 282a]	0.05 to 5 mM
Cc1ccccc1COc1c2c(nc3ccccc13)-c1cccn1C2=O [Compound 574b]	0.05 to 5 mM
O=C1c2c(nc3cc(O)ccc3c2O)-c2cccn21 [Compound 524b]	0.05 to 5 mM
O=C1c2c(nc3cc(N4CCNCC4)c(Cl)cc3c2O)-c2cccn21 [Compound 373b]	0.05 to 5 mM
O=C1c2c(nc3c(C(F)(F)F)cccc3c2OCc2cccc(Cl)c2)-c2cccn21 [Compound 455b]	0.05 to 5 mM
N#Cc1ccc(COc2c3c(nc4cc(N5CCNCC5)c(F)cc24)-c2cccn2C3=O)cc1 [Compound 635b]	0.05 to 5 mM
O=C1c2c(n(Cc3cccc(F)c3)c3ccccc3c2=O)-c2cccn21 [Compound 595a]	0.05 to 5 mM
O=C1c2c(n(CC(F)(F)F)c3ccccc3c2=O)-c2cccn21 [Compound 657a]	0.05 to 5 mM
O=C1c2c(n(-c3ccc(Cl)cc3)c3ccc(C(F)(F)F)cc3c2=O)-c2cccn21 [Compound 276a]	< 0.05 mM
O=C1c2c(nc3ccccc3c2OCc2ccc(Cl)c(Cl)c2)-c2cccn21 [Compound 613b]	0.05 to 5 mM
O=C1c2c(n(Cc3ccccc3F)c3cc(Cl)ccc3c2=O)-c2cccn21 [Compound 504a]	< 0.05 mM
CN(C)CCCn1c2c(c(=O)c3ccccc31)C(=O)n1cccc1-2 [Compound 658a]	0.05 to 5 mM
O=C1c2c(nc3ccccc3c2OCc2ccc(F)c(F)c2F)-c2cccn21 [Compound 584b]	0.05 to 5 mM
O=C1c2c(nc3ccccc3c2OCc2cc(F)c(F)c(F)c2F)-c2cccn21 [Compound 587b]	0.05 to 5 mM

* * *

Reported IC50 is given for each of the following compounds.
Test system: BHK-21 cells
assay.notes: Anti-fibrosis activity test: inhibition of BHK-21 cell proliferation (CCK-8)
Type: cell-based
study.conditions: Mesocricetus auratus, BHK-21, 48 h, CCK-8, 48 hours after administration

compound	IC50
O=C1c2c(nc3c(F)cccc3c2OCc2cccc(F)c2)-c2cccn21 [Compound 458b]	0.05 to 5 mM
N#Cc1cccc2c1c(=O)c1c(n2Cc2ccccc2F)-c2cccn2C1=O [Compound 469a]	< 0.05 mM
N#Cc1ccc2c(c1)c(=O)c1c(n2Cc2ccc(-c3ccccc3C#N)cc2)-c2cccn2C1=O [Compound 629a]	< 0.05 mM
O=C1c2c(n(Cc3ccc(Cl)cc3)c3c(F)c(N4CCNCC4)ccc3c2=O)-c2cccn21 [Compound 484a]	0.05 to 5 mM
O=C1c2c(nc3cccc(Cl)c3c2OCc2ccccc2F)-c2cccn21 [Compound 480b]	0.05 to 5 mM
N#Cc1ccccc1-c1ccc(COc2c3c(nc4cc(N5CCNCC5)c(C#N)cc24)-c2cccn2C3=O)cc1 [Compound 644b]	0.05 to 5 mM
N#Cc1ccc(COc2c3c(nc4cc(N5CCNCC5)c(C#N)cc24)-c2cccn2C3=O)cc1 [Compound 641b]	0.05 to 5 mM
O=C1c2c(nc3cc(N4CCNCC4)c(F)cc3c2OCc2ccc(C(F)(F)F)cc2)-c2cccn21 [Compound 636b]	0.05 to 5 mM
O=C1c2c(nc3cc(N4CCNCC4)cc(F)c3c2OCc2ccc(F)cc2)-c2cccn21 [Compound 646b]	0.05 to 5 mM
O=C1c2c(nc3ccccc3c2OCc2ccccc2C(F)(F)F)-c2cccn21 [Compound 581b]	0.05 to 5 mM
O=C1c2c(n(Cc3ccc([N+](=O)[O-])cc3)c3ccccc3c2=O)-c2cccn21 [Compound 593a]	0.05 to 5 mM
CCn1c2c(c(=O)c3cc(F)c(N4CCNCC4)cc31)C(=O)n1cccc1-2 [Compound 329a]	0.05 to 5 mM
O=C1c2c(n(Cc3ccc(F)cc3)c3cc(N4CCNCC4)cc(F)c3c2=O)-c2cccn21 [Compound 646a]	0.05 to 5 mM
O=C1c2c(n(Cc3ccc(F)cc3)c3cccc(F)c3c2=O)-c2cccn21 [Compound 468a]	< 0.05 mM
O=C(O)Cn1c2c(c(=O)c3cc(F)ccc31)C(=O)n1cccc1-2 [Compound 153a]	< 0.05 mM
N#Cc1ccc2c(c1)c(=O)c1c(n2Cc2ccc(-c3ccccc3)cc2)-c2cccn2C1=O [Compound 628a]	0.05 to 5 mM
O=C1c2c(n(Cc3ccc(Cl)cc3)c3cccc(C(F)(F)F)c3c2=O)-c2cccn21 [Compound 465a]	0.05 to 5 mM
N#Cc1c(N2CCNCC2)ccc2c(=O)c3c(n(Cc4ccc(F)cc4)c12)-c1cccn1C3=O [Compound 482a]	0.05 to 5 mM
O=C1c2c(n(Cc3ccc(Br)cc3F)c3ccccc3c2=O)-c2cccn21 [Compound 606a]	< 0.05 mM
O=C1c2c(nc3ccccc3c2OCCCO)-c2cccn21 [Compound 16b]	0.05 to 5 mM
